System: Escherichia coli TOP10;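 also: peptides expressed intracellularly from a pBAD plasmid library in pooled LB shake-flask culture, induced with 0.3% L-arabinose, DNA abundance read by NGS, three biological replicates, DESeq2 with apeglm shrinkage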
Experiment: shrunken log2 fold change of peptide-encoding DNA abundance (4.5 h post-induction vs induction); higher = less antimicrobial activity (less host growth inhibition)
Settings: time post-induction: 4.5 h; library: site-saturation at positions 5, 18, 19, 20
For each of the sequences below, state its shrunken log2 fold change.
API doc: respond with a numeric literal and nothing else, no unit.

What value of shrunken log2 fold change has been recorded for this entry: "RRIRWRPPRLPRPRPRPFLYPRP"
-0.0978

Also "RRIRIRPPRLPRPRPRPTDYPRP" ?
-0.223

Also "RRIRARPPRLPRPRPRPYRQPRP" ?
-0.0187

Also "RRIRYRPPRLPRPRPRPAIMPRP" ?
-0.196

Also "RRIRARPPRLPRPRPRPSWVPRP" ?
-0.174

Also "RRIRLRPPRLPRPRPRPHMTPRP" ?
-0.466

Also "RRIRMRPPRLPRPRPRPTKAPRP" ?
0.26

Also "RRIRQRPPRLPRPRPRPDFIPRP" ?
-0.345

Also "RRIRGRPPRLPRPRPRPQSRPRP" ?
0.328

Also "RRIRTRPPRLPRPRPRPKQAPRP" ?
0.0749

Also "RRIRCRPPRLPRPRPRPHHEPRP" ?
-0.24

Also "RRIRRRPPRLPRPRPRPNIPPRP" ?
-0.24

Also "RRIRLRPPRLPRPRPRPQMYPRP" ?
-0.115

Also "RRIRYRPPRLPRPRPRPPDFPRP" ?
-0.136

Also "RRIRIRPPRLPRPRPRPRSYPRP" ?
-0.381

Also "RRIRARPPRLPRPRPRPVTSPRP" ?
0.293

Also "RRIRMRPPRLPRPRPRPGSEPRP" ?
0.952

Also "RRIRARPPRLPRPRPRPIDAPRP" ?
0.0272

Also "RRIRRRPPRLPRPRPRPETWPRP" ?
0.234

Also "RRIRNRPPRLPRPRPRPHHMPRP" ?
-1.41

Also "RRIRDRPPRLPRPRPRPVWCPRP" ?
0.162

Also "RRIRARPPRLPRPRPRPQDIPRP" ?
-0.15

Also "RRIRERPPRLPRPRPRPMFYPRP" ?
-0.0786

Also "RRIRTRPPRLPRPRPRPATTPRP" ?
-0.181

Also "RRIRARPPRLPRPRPRPNYAPRP" ?
-0.0399

Also "RRIRKRPPRLPRPRPRPDHWPRP" ?
0.355

Also "RRIRVRPPRLPRPRPRPEAKPRP" ?
0.293

Also "RRIRGRPPRLPRPRPRPTCTPRP" ?
0.975

Also "RRIRKRPPRLPRPRPRPWCKPRP" ?
-0.188

Also "RRIRSRPPRLPRPRPRPAICPRP" ?
0.147

Also "RRIRDRPPRLPRPRPRPAYHPRP" ?
-0.263

Also "RRIRGRPPRLPRPRPRPCEHPRP" ?
0.149

Also "RRIRHRPPRLPRPRPRPIDKPRP" ?
0.0156

Also "RRIRVRPPRLPRPRPRPGCQPRP" ?
-0.0161

Also "RRIRVRPPRLPRPRPRPEQVPRP" ?
0.0835

Also "RRIRFRPPRLPRPRPRPIETPRP" ?
-0.186

Also "RRIRFRPPRLPRPRPRPCASPRP" ?
-0.315

Also "RRIRQRPPRLPRPRPRPNVIPRP" ?
-0.0189

Also "RRIRERPPRLPRPRPRPNPPPRP" ?
0.181

Also "RRIRDRPPRLPRPRPRPNVSPRP" ?
-0.00783

Also "RRIRWRPPRLPRPRPRPGHTPRP" ?
0.0581

Also "RRIRDRPPRLPRPRPRPTWLPRP" ?
0.909

Also "RRIRPRPPRLPRPRPRPNRSPRP" ?
0.16

Also "RRIRERPPRLPRPRPRPWAMPRP" ?
-0.129

Also "RRIRSRPPRLPRPRPRPMGPPRP" ?
-0.0846

Also "RRIRDRPPRLPRPRPRPCNIPRP" ?
-0.228

Also "RRIRRRPPRLPRPRPRPMSKPRP" ?
0.404

Also "RRIRDRPPRLPRPRPRPSSNPRP" ?
-0.148

Also "RRIRKRPPRLPRPRPRPVRIPRP" ?
0.494

Also "RRIRDRPPRLPRPRPRPKYMPRP" ?
-0.326

Also "RRIRTRPPRLPRPRPRPISDPRP" ?
-0.0355
